System: Parascaris equorum
assay.details: Residual NADH:UBQ:DCIP reductase activity in parascaris mitochondrial particles
Set-up: concentration or dose not given beside the values

# smiles.representation, residual activity
records = [
    ("Cc1csc2nc(-c3ccsc3)cn12", "75%"),
    ("Cn1c(-c2ccccc2)c(/C=C/c2cccs2)[n+]2ccsc12", "94%"),
    ("c1cc(-c2cn3ccsc3n2)cs1", "83%"),
    ("C=C(C)[C@H]1Cc2c(ccc3c2O[C@@H]2COc4cc(OC)c(OC)cc4[C@@H]2C3=O)O1", "65%"),
    ("c1csc(-c2cn3c(n2)SCC3)c1", "88%"),
    ("Cc1cn2cc(-c3cccs3)nc2s1", "59%"),
    ("c1csc(-c2cn3ccsc3n2)c1", "79%"),
]

Origin of the recorded values: ChEMBL document CHEMBL1128596
